Here, each record is paired with measured TGI data.
- System: A549 NSCLC
- Protocol summary: NCI tumour cell line growth inhibition, 48 h

// known answers, use as guide
- Compound: "CCc1ccccc1NC(=O)/C(CC(=O)c1c(C)n([O-])c2ccccc2[n+]1=O)=N\\NS(=O)(=O)c1ccc(C)cc1"
  TGI: "> 100 µM"
- Compound: "Cc1cc(NC(=O)c2ccc(NS(=O)(=O)CCO)cc2N2CCC3(CC2)CC3)nc(N2CCC(F)(F)CC2)n1"
  TGI: "30.4 µM"
- Compound: "CCCCCCCC1c2cc3[nH]c(cc4nc(cc5[nH]c(cc(n2)[C@@]1(C)CC(=O)N(C)C)c(C)c5CCC(=O)O)C(CCC(=O)O)=C4C)cc3C (stereo partly specified)"
  TGI: "> 100 µM"

// Cc1nnc(Nc2ccc(Cl)cc2)o1 : TGI value = > 10 µM

// TGI lookup, compound = N=c1ccn2c(n1)OC1C(OP(=O)(O)O)C(CO)OC12 (stereo unspecified) , result: > 100 µM
